TARGET UNDER TEST: HDAC7 (Homo sapiens, UniProt Q8WUI4)
Sequence (Q8WUI4 whole entry): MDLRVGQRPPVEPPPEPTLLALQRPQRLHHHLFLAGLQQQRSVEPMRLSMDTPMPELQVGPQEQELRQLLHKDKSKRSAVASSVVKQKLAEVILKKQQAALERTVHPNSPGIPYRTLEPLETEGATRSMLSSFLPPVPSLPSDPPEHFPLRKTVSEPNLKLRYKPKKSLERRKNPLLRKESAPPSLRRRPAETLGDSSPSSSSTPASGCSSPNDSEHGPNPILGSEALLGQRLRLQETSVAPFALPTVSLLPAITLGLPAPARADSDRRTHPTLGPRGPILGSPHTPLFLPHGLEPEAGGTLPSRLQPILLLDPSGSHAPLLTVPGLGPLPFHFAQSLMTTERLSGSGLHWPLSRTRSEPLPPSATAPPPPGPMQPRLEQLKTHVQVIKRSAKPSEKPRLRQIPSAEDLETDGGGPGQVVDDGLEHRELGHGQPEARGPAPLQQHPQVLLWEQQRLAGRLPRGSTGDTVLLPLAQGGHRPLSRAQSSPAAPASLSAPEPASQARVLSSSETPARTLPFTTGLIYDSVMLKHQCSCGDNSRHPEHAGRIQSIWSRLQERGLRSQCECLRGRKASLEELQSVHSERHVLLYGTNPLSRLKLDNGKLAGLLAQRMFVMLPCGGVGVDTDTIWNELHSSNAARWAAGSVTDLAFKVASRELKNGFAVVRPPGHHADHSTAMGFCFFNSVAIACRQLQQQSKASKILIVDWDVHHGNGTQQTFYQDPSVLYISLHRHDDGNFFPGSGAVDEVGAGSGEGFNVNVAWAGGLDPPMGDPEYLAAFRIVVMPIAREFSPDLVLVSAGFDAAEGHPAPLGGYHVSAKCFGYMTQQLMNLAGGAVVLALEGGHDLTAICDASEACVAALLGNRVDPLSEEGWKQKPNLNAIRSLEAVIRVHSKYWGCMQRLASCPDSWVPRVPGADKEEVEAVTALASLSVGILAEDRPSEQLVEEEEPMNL
SETTINGS: 50 ug/ml
QUANTITY NAME: HDAC 7 activity, % of water-treated controls (%)
Supply the numeric figure in %, leaving out any unit text.

For orientation, consider the following solved cases.
CCCC(=O)N[C@@H](CC(C)C)C(=O)[O-].CCCC(=O)N[C@@H](CC(C)C)C(=O)[O-].[Zn+2] [Zn di-(n-butyryl leucinate), Zinc di-(n-butyryl leucinate)] ... 11
CCCC(=O)NCCCCC(NC(=O)CCC)C(=O)[O-].CCCC(=O)NCCCCC(NC(=O)CCC)C(=O)[O-].[Ca+2] (stereo not shown) [Ca di-(di-n-butyryl lysinate), calcium di-(di-n-butyryl lysinate)] ... 99
CCCC(=O)NCCCC[C@H](NC(=O)CCC)C(=O)[O-].CCCC(=O)NCCCC[C@H](NC(=O)CCC)C(=O)[O-].[Zn+2] [Zn di-(di-n-butyryl lysinate), Zinc di-(di-n-butyryl lysinate)] ... 15

Okay, now this molecule:
Sample CCCC(=O)[O-].[Na+] [Sodium butyrate, reference compound] ; HDAC 7 activity, % of water-treated controls observed: 96

These entries and their values trace back to patent US20260041620A1.
